Tested target: EfCdnE (Enterococcus faecalis)
Construct: Full-length gene fragments encoding ClCdnE from Cecembia lonarensis; made in house; host or cells: E. coli BL21 (DE3)
Sequence (P0DX98 whole entry, the tested form may be a part): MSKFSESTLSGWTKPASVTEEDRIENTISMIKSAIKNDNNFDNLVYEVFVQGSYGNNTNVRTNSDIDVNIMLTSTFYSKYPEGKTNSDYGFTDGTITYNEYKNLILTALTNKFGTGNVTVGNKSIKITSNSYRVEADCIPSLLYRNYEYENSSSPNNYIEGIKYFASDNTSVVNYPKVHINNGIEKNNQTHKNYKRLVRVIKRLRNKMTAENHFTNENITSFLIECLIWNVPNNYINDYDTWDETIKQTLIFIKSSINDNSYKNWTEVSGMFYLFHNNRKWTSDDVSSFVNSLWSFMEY
Assay protocol: ITC analysis of nucleotide binding to wild-type EfCdnE
Measurement setup: dissociation constant (KD), second of two binding sites, ITC, wild-type EfCdnE, sequential two-site fit; second-named site (acceptor pocket for UMPnPP)
Measured pKd of individual entries
# pKd: negative log10 of molar concentration; output just the value

O=c1ccn([C@@H]2O[C@H](COP(=O)(O)NP(=O)(O)OP(=O)(O)O)[C@@H](O)[C@H]2O)c(=O)[nH]1 [UMPnPP] | 6.01

Now take the following compound into account.
Query block: GET /values?readout=pKd&item= Nc1ccn([C@@H]2O[C@H](COP(=O)(O)CP(=O)(O)OP(=O)(O)O)[C@@H](O)[C@H]2O)c(=O)n1 [CMPcPP]
Result block: 5.90
